Numbers sourced from PubChem BioAssay AID2060907.

System: 388556-164-R-J1-PDC complex spheroid viability
Experiment: Anticancer human tumor 388556-164-R-J1-PDC patient-derived colon adenocarcinoma cell line growth inhibition [RAS]
Conditions: compound 0.0316 µM; stronger effect = lower value
Experimental readout: viability, T/C

Guide cases for viability, T/C, answers given:
Compound	Experimental readout	Value observed
C[C@@H](NC(=O)c1ncnc(N)c1Cl)c1ncc(C(=O)Nc2cc(C(F)(F)F)c(Cl)cn2)s1	viability, T/C	106% [middle of 4 runs]
C=CC(=O)N1CCN(c2nc(OCC3CCCN3C)nc3c(F)c(-c4nc(N)cc(C)c4C(F)(F)F)c(Cl)cc23)C(C)C1 (stereo not given)	viability, T/C	99.2% [middle of 11 runs]
NC1c2ccccc2OC12CCN(c1cnc3c(N4CCCc5ncccc54)n[nH]c3n1)CC2 (stereo not given)	viability, T/C	70% [middle of 4 runs]
O=C(c1ccc(F)c(F)c1Nc1ccc(I)cc1F)N1CC(O)([C@@H]2CCCCN2)C1	viability, T/C	82.8% [middle of 4 runs]
C=CC(=O)Nc1cc(Nc2nccc(-c3cn(C)c4ccccc34)n2)c(OC)cc1N(C)CCN(C)C	viability, T/C	98.9% [middle of 4 runs]

Task: Given the entry CCC(CC)c1cc(NC2CCC(N)C2)n2nccc2n1 (stereo not given) , report its measured viability, T/C.
Result: 100% [middle of 4 runs]

Task: Can you handle Nc1ccn(C2OC(CO)C(O)C2(F)F)c(=O)n1 (stereo not given) next?
Result: 81.8% [middle of 4 runs]

Task: For CC(=O)OC12COC1CC(O)C1(C)C(=O)C(O)C3=C(C)C(OC(=O)C(O)C(NC(=O)OC(C)(C)C)c4ccccc4)CC(O)(C(OC(=O)c4ccccc4)C21)C3(C)C (stereo not given) then?
Result: 89.3% [middle of 4 runs]

Task: Same question for C#Cc1c(F)ccc2cc(O)cc(-c3ncc4c(N5CC6CCC(C5)N6)nc(OCC56CCCN5CC(F)C6)nc4c3F)c12 (stereo not given) please.
Result: 84.2% [middle of 8 runs]

Task: # iterate: `CC(C)n1nc(-c2ccc3oc(N)nc3c2)c2c(N)ncnc21`
Result: 59.4% [middle of 4 runs]

----------
System: 388556-164-R-J1-PDC complex spheroid viability
Assay: Anticancer human tumor 388556-164-R-J1-PDC cell line growth inhibition [RAS];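 also: spheroids exposed to compound for 7 days before readout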
Conditions: curve of compound
Overview of reported IC50 across a group of compounds:

Compound	IC50
C=CC(=O)Nc1cc(Nc2nccc(-c3cn(C)c4ccccc34)n2)c(OC)cc1N(C)CCN(C)C	> 1 µM
CC1(O)CCCC1n1c(=O)c(C(F)F)cc2cnc(NC3CCN(S(C)(=O)=O)CC3)nc21 (stereo not drawn)	> 10 µM

Task: What measured IC50 goes with CC(=O)OC12COC1CC(O)C1(C)C(=O)C(O)C3=C(C)C(OC(=O)C(O)C(NC(=O)OC(C)(C)C)c4ccccc4)CC(O)(C(OC(=O)c4ccccc4)C21)C3(C)C (stereo not drawn) ?
Result: > 10 µM

----------
System: 388556-164-R-J1-PDC complex spheroid viability
Test: Anticancer human tumor 388556-164-R-J1-PDC cell line growth inhibition [RAS];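 also: spheroids exposed to compound for 7 days before readout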;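 as to viability, T/C: 100% = DMSO vehicle control luminescence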
Conditions: second compound 0.0316 µM; first compound 0.1 µM; stronger effect = lower value
Experimental readout: viability, T/C (%)
# value in %; strip the unit string

Example compounds with recorded viability, T/C:
Compound	Experimental readout	Value observed
O=C(c1ccc(F)c(F)c1Nc1ccc(I)cc1F)N1CC(O)([C@@H]2CCCCN2)C1 + C#Cc1c(F)ccc2cc(O)cc(-c3ncc4c(N5CC6CCC(C5)N6)nc(OCC56CCCN5CC(F)C6)nc4c3F)c12	viability, T/C	61.6
O=C(c1ccc(F)c(F)c1Nc1ccc(I)cc1F)N1CC(O)([C@@H]2CCCCN2)C1 + C=CC(=O)N1CCN(c2nc(OCC3CCCN3C)nc3c(F)c(-c4nc(N)cc(C)c4C(F)(F)F)c(Cl)cc23)C(C)C1	viability, T/C	59.8

Task: State the recorded viability, T/C for this entry: NC1c2ccccc2OC12CCN(c1cnc3c(N4CCCc5ncccc54)n[nH]c3n1)CC2 (stereo not drawn) + C#Cc1c(F)ccc2cc(O)cc(-c3ncc4c(N5CC6CCC(C5)N6)nc(OCC56CCCN5CC(F)C6)nc4c3F)c12
Result: 59.1
